# rescue above control values compiled below
# PROCEDURE DETAILS: rescue of polyQ-huntingtin neuronal dysfunction in worms, whole organism, C. elegans mechanosensory neurons, N-terminal huntingtin (AID 1599)
# MEASUREMENT CONDITIONS: touch response, stronger effect = higher value
Results with a measured potency or affinity are listed apart. Peptide text beside a SMILES is read from it.

• CC(=O)N1CCN(c2ccc(OCC3CO[C@](Cn4ccnc4)(c4ccc(Cl)cc4Cl)O3)cc2)CC1 (stereo not given in full) = 0.92
• O=C1C[C@@H](c2ccc(O)cc2)Oc2cc(O)cc(O)c21 = -15.8
• CN(N=O)C(=O)N[C@@H]1[C@@H](O)[C@H](O)[C@@H](CO)O[C@@H]1O = -12.1
• O=c1c(O)c(-c2ccc(O)cc2O)oc2cc(O)cc(O)c12 = -6.82

Next molecule, rescue above control to be filled in.
INPUT: // lookup rescue above control for CC(=O)N[C@@H](CC(=O)O)C(=O)N[C@@H](CCC(=O)O)C(=O)O (Ac-Asp-Glu-OH)
OUTPUT: 7.68
